# EXPERIMENT NOTES: Caco-2 assay (permeability)
# Format: in vitro ADME
# COND: human
READOUT: Papp (×10⁻⁶ cm/s)
Write the value in ×10⁻⁶ cm/s as a bare number.

query: Note down Papp recorded for COc1ccc(-c2cc(C(C)(C)C)c(OC)c3cc(-c4ccc(NS(C)(=O)=O)cc4)cnc23)c(=O)[nH]1
result: 4.5
